Listed here: items and their measured cell viability.
Test system: MOLM14;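 also: after 48 h exposure read by CellTiter-Glo luminescence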
Experiment: cell viability relative to vehicle control; higher = less cytotoxic
Settings: 10 µM; SRSF2 genotype: SRSF2 P95H/wt
Counter-ions that a name gives are not always drawn.
property name: cell viability (%)

>>> readout_number("Cc1ccc([N+](=O)[O-])cc1S(=O)(=O)N(C)/N=C/c1cnc2ccc(Br)cn12")
0.68
>>> readout_number("CNC(=O)c1ccc(C)c(-n2c(C)cc(OCc3ccc(F)cc3F)c(Br)c2=O)c1")
69.8
>>> readout_number("CCn1cc(C(=O)O)c(=O)c2c(N)c(F)c(NC3CCCCC3)cc21")
106
>>> readout_number("CCCn1/c(=N/C(=O)c2cccc(C(N)=O)c2)[nH]c2ccccc21 [Takinib]")
77.8
>>> readout_number("CO[C@H]1C[C@H](O[C@H]2[C@H](C)O[C@@H](O[C@@H]3/C(C)=C/C[C@@H]4C[C@@H](C[C@]5(C=C[C@H](C)[C@@H](C6CCCCC6)O5)O4)OC(=O)[C@@H]4C=C(C)[C@@H](O)[C@H]5OC/C(=C\\C=C\\[C@@H]3C)[C@]54O)C[C@@H]2OC)O[C@@H](C)[C@@H]1O [Doramectin]")
24.6
>>> readout_number("Cc1ncc([N+](=O)[O-])n1CCO [Metronidazole (Flagyl)]")
104
>>> readout_number("Nc1ccc(S(=O)(=O)Nc2ncccn2)cc1 [Sodium sulfadiazine]")
98.1
>>> readout_number("CNC(=O)c1ccccc1Oc1nc(Nc2cc(OC)c(OC)c(OC)c2)ncc1Br")
8.58
>>> readout_number("CN1CC(O)c2cc(N=NC(N)=O)c(O)cc21 (stereo unspecified) [Carbazochrome]")
95.7
>>> readout_number("CC(=O)O[C@]1(C(C)=O)CC[C@H]2[C@@H]3C[C@H](C)C4=CC(=O)CC[C@]4(C)[C@H]3CC[C@@]21C [Medroxyprogesterone acetate]")
112
>>> readout_number("Oc1cc(O)c(Cl)cn1 [Gimeracil]")
102
>>> readout_number("COC(=O)CCC(=O)CN [Methyl Aminolevulinate Hydrochloride]")
95
>>> readout_number("Cc1ccc(C(=O)Nc2ccc(CN3CCN(C)CC3)c(C(F)(F)F)c2)cc1C#Cc1cnc2[nH]ncc2c1 [GZD824 Dimesylate]")
0.15
>>> readout_number("Cc1ccc(-c2c(-c3nn(C)c4ncnc(N5CC[C@H](N6CCCCC6)C5)c34)cnn2C)cc1")
95.1
>>> readout_number("CN(C)CC/C=C1/c2ccccc2COc2ccc(CC(=O)O)cc21 [Olopatadine hydrochloride (Opatanol)]")
107
>>> readout_number("CC#CC(=O)N1CC[C@@H](n2c(=O)n(-c3ccc(Oc4ccccc4)cc3)c3c(N)ncnc32)C1 [ONO-4059 (GS-4059) hydrochloride]")
91.4
